Biological target: mUSP18 (Mus musculus, UniProt Q9WTV6)
Construct: (46-368); His-tag (N); made in house
Sequence (Q9WTV6 46-368): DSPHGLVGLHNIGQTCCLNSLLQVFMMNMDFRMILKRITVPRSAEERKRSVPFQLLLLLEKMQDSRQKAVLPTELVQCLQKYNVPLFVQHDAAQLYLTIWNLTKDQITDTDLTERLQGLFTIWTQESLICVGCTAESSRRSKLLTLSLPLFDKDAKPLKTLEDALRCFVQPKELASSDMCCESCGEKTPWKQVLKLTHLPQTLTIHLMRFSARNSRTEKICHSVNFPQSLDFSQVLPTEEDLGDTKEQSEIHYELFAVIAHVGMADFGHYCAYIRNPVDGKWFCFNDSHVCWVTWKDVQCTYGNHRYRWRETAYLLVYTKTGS
Assay: High-throughput screening, ISG15ct-RhoMP, single dose 1.25 µM
Assay type: biochemical, murine
Settings: mUSP18 %inhibition; carboxylic acid (CA) with coupling reagents DIC/HOBT; read-out: %inh CA + DIC/HOBT

{"COMPOUND": "O=C(O)Cc1csc(-c2cccs2)n1", "inhibition at 1.25 µM (%)": -9.04}
{"COMPOUND": "Cc1nc(-c2ncccn2)sc1C(=O)O", "inhibition at 1.25 µM (%)": 8.46}
{"COMPOUND": "O=C(O)Cc1ccc(S(=O)(=O)N2CCCC2)s1", "inhibition at 1.25 µM (%)": 15.6}
{"COMPOUND": "NS(=O)(=O)c1ccc(-c2cccc(C(F)(F)F)c2)c(C(=O)O)c1", "inhibition at 1.25 µM (%)": 12.3}
{"COMPOUND": "O=C(O)c1ccc(CN2CCOCC2)cc1", "inhibition at 1.25 µM (%)": -2.66}
{"COMPOUND": "O=C(O)c1ccc(/N=N/c2ccccc2)cc1", "inhibition at 1.25 µM (%)": -5.83}
{"COMPOUND": "O=C(O)c1cc([N+](=O)[O-])ccc1Br", "inhibition at 1.25 µM (%)": -15.9}
{"COMPOUND": "Cc1nnnn1-c1cc(C(=O)O)cc(C(F)(F)F)c1", "inhibition at 1.25 µM (%)": 3.27}
{"COMPOUND": "O=C(O)Cc1coc(-c2cccs2)n1", "inhibition at 1.25 µM (%)": -4.85}
{"COMPOUND": "O=C(O)c1cc(-n2ccnn2)ccc1F", "inhibition at 1.25 µM (%)": -1.08}
{"COMPOUND": "O=C(O)c1cc(-c2ccc(Cl)cc2)oc1C(F)(F)F", "inhibition at 1.25 µM (%)": 11.8}
{"COMPOUND": "O=C(O)c1ccc(Cn2cc(Br)cn2)o1", "inhibition at 1.25 µM (%)": 5.82}
{"COMPOUND": "O=C(O)c1ccc2c(c1)ncn2C1CCCCO1 (stereo not drawn)", "inhibition at 1.25 µM (%)": -14.9}
{"COMPOUND": "O=C(O)Cc1csc(-c2ccccc2)n1", "inhibition at 1.25 µM (%)": -5.62}
{"COMPOUND": "O=C(O)c1snnc1-c1ccc(Br)cc1", "inhibition at 1.25 µM (%)": 10.8}
{"COMPOUND": "Cc1ccc(CN2C(=O)CCC2C(=O)O)cc1 (stereo not drawn)", "inhibition at 1.25 µM (%)": -1.16}
{"COMPOUND": "CN(CC(=O)N1CCCC(C(=O)O)C1)c1ccc(Cl)cn1 (stereo not drawn)", "inhibition at 1.25 µM (%)": 1.85}
{"COMPOUND": "O=C(O)c1ccc(S(=O)(=O)NC2CC2)cc1", "inhibition at 1.25 µM (%)": 4.16}
{"COMPOUND": "O=C(O)Cc1csc(N2CCCC2=O)n1", "inhibition at 1.25 µM (%)": -3.35}
{"COMPOUND": "O=C(O)c1ccc(CNS(=O)(=O)c2ccc(F)c(F)c2F)cc1", "inhibition at 1.25 µM (%)": 1.22}
{"COMPOUND": "CC(C)(C)OC(=O)N1C[C@@H](O)C[C@@H]1C(=O)O", "inhibition at 1.25 µM (%)": -16.4}
{"COMPOUND": "Cc1nc(-c2cnn(C)c2)sc1C(=O)O", "inhibition at 1.25 µM (%)": 3.44}
{"COMPOUND": "O=C(O)C1CC=CCC1C(=O)N1CCOCC1 (stereo not drawn)", "inhibition at 1.25 µM (%)": 0.61}
{"COMPOUND": "O=C(O)C1(n2cnnn2)CC1", "inhibition at 1.25 µM (%)": 4.09}

###

Target: UCHL1 (Homo sapiens, UniProt P09936)
Construct: (1-223); made in house
Sequence (P09936 whole entry): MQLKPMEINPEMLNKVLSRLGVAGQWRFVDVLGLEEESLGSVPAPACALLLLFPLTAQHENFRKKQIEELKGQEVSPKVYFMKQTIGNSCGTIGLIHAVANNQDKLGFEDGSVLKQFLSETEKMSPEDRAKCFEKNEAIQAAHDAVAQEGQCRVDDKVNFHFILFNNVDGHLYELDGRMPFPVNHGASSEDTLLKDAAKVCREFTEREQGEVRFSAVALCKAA
Test: High-throughput screening, Ub-RhoMP, single dose 1.25 µM
Assay type: biochemical
Conditions: individual amine building block (plate NCN-5); read-out: BB %inhibition UCHL1
This section presents compounds with their documented inhibition at 1.25 µM values.

{"COMPOUND": "N#CN1CC[C@@H](N)C1", "inhibition at 1.25 µM, %": 2.6}
{"COMPOUND": "N#CN1C[C@H]2C[C@H](N)C[C@H]2C1", "inhibition at 1.25 µM, %": 0.7}
{"COMPOUND": "N#CN1CC[C@H](CN)C1", "inhibition at 1.25 µM, %": -2.6}
{"COMPOUND": "N#CN1C[C@H](N)[C@@H](O)C1", "inhibition at 1.25 µM, %": 0.8}
{"COMPOUND": "N#CN1CCC(N)CC1", "inhibition at 1.25 µM, %": 4}
{"COMPOUND": "N#CN1C[C@H]2C[C@@H](N)C[C@H]2C1", "inhibition at 1.25 µM, %": 0.4}
{"COMPOUND": "N#CN1CCC[C@@H](N)C1", "inhibition at 1.25 µM, %": 3.6}
{"COMPOUND": "N#CN1CCC2(CCNC2)C1 (stereo not shown)", "inhibition at 1.25 µM, %": 1}
{"COMPOUND": "N#CN1CCC[C@H](N)C1", "inhibition at 1.25 µM, %": 1}
{"COMPOUND": "N#CN1C[C@@H]2C[C@H]1CN2", "inhibition at 1.25 µM, %": -1.2}
{"COMPOUND": "N#CN1C[C@@H](F)[C@@H](N)C1", "inhibition at 1.25 µM, %": 1}
{"COMPOUND": "N#CN1CC(N)C1", "inhibition at 1.25 µM, %": 3.8}
{"COMPOUND": "N#CN1CCC(n2cc(N)cn2)CC1", "inhibition at 1.25 µM, %": 1.3}
{"COMPOUND": "N#CN1CC[C@@H](NC(=O)c2ccc(CN)cc2)C1", "inhibition at 1.25 µM, %": -0.3}
{"COMPOUND": "N#CN1CC[C@H](N)C1", "inhibition at 1.25 µM, %": 1.1}

###

Target: mUSP18 (Mus musculus, UniProt Q9WTV6)
Construct: (46-368); His-tag (N); made in house
Experiment: High-throughput screening, ISG15ct-RhoMP, single dose 1.25 µM
Type: biochemical, murine
Details: mUSP18 %inhibition; carboxylic acid (CA) building block alone; read-out: %inh CA only
// reported inhibition at 1.25 µM for each item listed
REPORTED_ENDPOINT: inhibition at 1.25 µM (%)

{"COMPOUND": "O=C(O)c1csc(-c2cnc[nH]2)n1 [CA238]", "MEASUREMENT_TARGET": "mUSP18 (Mus musculus, UniProt Q9WTV6)", "REPORTED_MEASUREMENT": 6.66}
{"COMPOUND": "O=C(O)c1c(-c2ccccc2)noc1C(F)F [CA177]", "MEASUREMENT_TARGET": "mUSP18 (Mus musculus, UniProt Q9WTV6)", "REPORTED_MEASUREMENT": 4.94}
{"COMPOUND": "COc1cc(CC(=O)O)ccc1O [CA050]", "MEASUREMENT_TARGET": "mUSP18 (Mus musculus, UniProt Q9WTV6)", "REPORTED_MEASUREMENT": -1.29}
{"COMPOUND": "O=C(O)c1cc(C2CC2)n[nH]1 [CA293]", "MEASUREMENT_TARGET": "mUSP18 (Mus musculus, UniProt Q9WTV6)", "REPORTED_MEASUREMENT": 0.33}
{"COMPOUND": "O=C(O)c1ncn(-c2ccccc2)n1 [CA437]", "MEASUREMENT_TARGET": "mUSP18 (Mus musculus, UniProt Q9WTV6)", "REPORTED_MEASUREMENT": -3.12}
{"COMPOUND": "Cc1ccc(-n2c(C)ccc2C)c(C(=O)O)c1 [CA96]", "MEASUREMENT_TARGET": "mUSP18 (Mus musculus, UniProt Q9WTV6)", "REPORTED_MEASUREMENT": 74.4}
{"COMPOUND": "O=C(O)c1ccc2cc3ccccc3cc2c1 [CA068]", "MEASUREMENT_TARGET": "mUSP18 (Mus musculus, UniProt Q9WTV6)", "REPORTED_MEASUREMENT": 6.72}
{"COMPOUND": "Cc1ccc(C=CS(=O)(=O)N2CCC(C(=O)O)CC2)cc1 [CA426]", "MEASUREMENT_TARGET": "mUSP18 (Mus musculus, UniProt Q9WTV6)", "REPORTED_MEASUREMENT": -0.61}
{"COMPOUND": "Cc1csc(N2CCCC(C(=O)O)C2)n1 (centres unmarked) [CA226]", "MEASUREMENT_TARGET": "mUSP18 (Mus musculus, UniProt Q9WTV6)", "REPORTED_MEASUREMENT": 2.29}
{"COMPOUND": "O=C(O)C(Cc1c[nH]cn1)NS(=O)(=O)c1ccc(Cl)cc1 (centres unmarked) [CA091]", "MEASUREMENT_TARGET": "mUSP18 (Mus musculus, UniProt Q9WTV6)", "REPORTED_MEASUREMENT": 20.4}
{"COMPOUND": "O=C(O)C1Cc2ccccc21 (centres unmarked) [CA263]", "MEASUREMENT_TARGET": "mUSP18 (Mus musculus, UniProt Q9WTV6)", "REPORTED_MEASUREMENT": 9.79}
{"COMPOUND": "CCC(C(=O)O)n1nnc(-c2ccsc2)n1 (centres unmarked) [CA109]", "MEASUREMENT_TARGET": "mUSP18 (Mus musculus, UniProt Q9WTV6)", "REPORTED_MEASUREMENT": 10.4}
{"COMPOUND": "O=C(O)c1ccc(Oc2cccc(Cl)c2)cn1 [CA351]", "MEASUREMENT_TARGET": "mUSP18 (Mus musculus, UniProt Q9WTV6)", "REPORTED_MEASUREMENT": 4.42}
{"COMPOUND": "O=C(O)c1ccc(CN2CCCCCC2)s1 [CA279]", "MEASUREMENT_TARGET": "mUSP18 (Mus musculus, UniProt Q9WTV6)", "REPORTED_MEASUREMENT": 4.45}
{"COMPOUND": "Cc1noc(C)c1COc1ccc(CC(=O)O)cc1 [CA191]", "MEASUREMENT_TARGET": "mUSP18 (Mus musculus, UniProt Q9WTV6)", "REPORTED_MEASUREMENT": 4.33}
{"COMPOUND": "O=C(O)Cc1csc(-c2nnc[nH]2)n1 [CA286]", "MEASUREMENT_TARGET": "mUSP18 (Mus musculus, UniProt Q9WTV6)", "REPORTED_MEASUREMENT": 1.07}
{"COMPOUND": "O=C(O)C1(n2cnnn2)CCOCC1 [CA120]", "MEASUREMENT_TARGET": "mUSP18 (Mus musculus, UniProt Q9WTV6)", "REPORTED_MEASUREMENT": 11.7}
{"COMPOUND": "O=C(O)c1c[nH]nc1-c1ccncc1 [CA408]", "MEASUREMENT_TARGET": "mUSP18 (Mus musculus, UniProt Q9WTV6)", "REPORTED_MEASUREMENT": -2.77}
{"COMPOUND": "Cn1cc(-c2cc(C(=O)O)no2)cn1 [CA466]", "MEASUREMENT_TARGET": "mUSP18 (Mus musculus, UniProt Q9WTV6)", "REPORTED_MEASUREMENT": -0.57}
{"COMPOUND": "O=C(O)c1c(F)c(F)c(O)c(F)c1F [CA055]", "MEASUREMENT_TARGET": "mUSP18 (Mus musculus, UniProt Q9WTV6)", "REPORTED_MEASUREMENT": -5.28}
{"COMPOUND": "O=C(O)c1ccc2c(c1)ncn2C1CCCCO1 (centres unmarked) [CA084]", "MEASUREMENT_TARGET": "mUSP18 (Mus musculus, UniProt Q9WTV6)", "REPORTED_MEASUREMENT": -10.2}
{"COMPOUND": "C#CCCC(=O)O [CA014]", "MEASUREMENT_TARGET": "mUSP18 (Mus musculus, UniProt Q9WTV6)", "REPORTED_MEASUREMENT": -1.43}
{"COMPOUND": "COc1ccc(C(=O)O)cc1S(=O)(=O)NCCc1ccccn1 [CA259]", "MEASUREMENT_TARGET": "mUSP18 (Mus musculus, UniProt Q9WTV6)", "REPORTED_MEASUREMENT": 13.5}
{"COMPOUND": "CC(C)n1nccc1[1C@@H]1OCC[1C@H]1C(=O)O [CA449]", "MEASUREMENT_TARGET": "mUSP18 (Mus musculus, UniProt Q9WTV6)", "REPORTED_MEASUREMENT": 2.37}
{"COMPOUND": "CC(=O)C(=O)O [CA079]", "MEASUREMENT_TARGET": "mUSP18 (Mus musculus, UniProt Q9WTV6)", "REPORTED_MEASUREMENT": -7.45}
{"COMPOUND": "O=C1CC(C(=O)O)NC(=O)N1 (centres unmarked) [CA075]", "MEASUREMENT_TARGET": "mUSP18 (Mus musculus, UniProt Q9WTV6)", "REPORTED_MEASUREMENT": -4.58}
